Entries and their measured IC50 follow.
Study target: D(2) dopamine receptor (Rattus norvegicus, UniProt P61169)
Sequence (P61169 whole entry): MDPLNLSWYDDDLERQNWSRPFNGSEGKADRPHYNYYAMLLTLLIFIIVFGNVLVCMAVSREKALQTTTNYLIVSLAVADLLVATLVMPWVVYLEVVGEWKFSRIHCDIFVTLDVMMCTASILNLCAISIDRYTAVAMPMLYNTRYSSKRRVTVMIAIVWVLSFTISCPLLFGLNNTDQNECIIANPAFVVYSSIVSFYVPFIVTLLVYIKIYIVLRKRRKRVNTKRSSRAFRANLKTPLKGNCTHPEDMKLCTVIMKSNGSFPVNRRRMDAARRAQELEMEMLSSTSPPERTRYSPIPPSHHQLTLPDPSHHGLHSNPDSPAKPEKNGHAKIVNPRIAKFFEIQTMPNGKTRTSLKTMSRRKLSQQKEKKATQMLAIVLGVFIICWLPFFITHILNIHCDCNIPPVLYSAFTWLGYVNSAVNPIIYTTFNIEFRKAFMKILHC
Experimental details: Binding affinity against Dopamine receptor D2 using [3H]spiperone as radioligand

Examples with answers:
> print(dat)
                                   compound  measurement
1  CN1CCCC(c2cccc(O)c2)C1 (configuration not stated)      1950 nM
2    CCCCN1CCCC2c3cc(OC)ccc3CCC21 (racemic)      3840 nM
3      CCCN1CCC[C@@H]2c3cccc(O)c3CC[C@@H]21       160 nM
4                   Oc1cccc([C@H]2CCCNC2)c1       435 nM
5  COc1ccc2c(c1)C1CCCN(CCc3ccccc3)C1CC2 (racemic)       435 nM

Request: Form field: IC50 recorded for "CCCN1CCC[C@H]2c3cccc(O)c3CC[C@H]21" with D(2) dopamine receptor (Rattus norvegicus, UniProt P61169) (enter value)
Result: > 100000 nM

Request: Form field: IC50 recorded for CCCN1CCCC2c3ccc(O)cc3CCC21 (racemic; 30) with D(2) dopamine receptor (Rattus norvegicus, UniProt P61169) (enter value)
Result: 13000 nM

Request: Form field: IC50 recorded for "CCCCN1CCC[C@@H](c2cccc(O)c2)C1" with D(2) dopamine receptor (Rattus norvegicus, UniProt P61169) (enter value)
Result: 275 nM

###

Study target: Sigma non-opioid intracellular receptor 1 (Rattus norvegicus)
Experimental details: In vitro for binding affinity against sigma receptor using [3H](+)-3-PPP as radioligand
Observation type: IC50 (nM)
Response body: numeric value in nM, unit text excluded.

> print(dat)
                               compound  measurement
1  CCCN1CCC[C@@H]2c3cccc(O)c3CC[C@@H]21           48
2               Oc1cccc([C@H]2CCCNC2)c1         4570

Request: Form field: IC50 recorded for CCCN1CCCC2c3cc(O)ccc3CCC21 (racemic; 32) with Sigma non-opioid intracellular receptor 1 (Rattus norvegicus) (enter value)
Result: 66

###

Study target: Sigma non-opioid intracellular receptor 1 (Rattus norvegicus, UniProt Q9R0C9)
Sequence (Q9R0C9 whole entry): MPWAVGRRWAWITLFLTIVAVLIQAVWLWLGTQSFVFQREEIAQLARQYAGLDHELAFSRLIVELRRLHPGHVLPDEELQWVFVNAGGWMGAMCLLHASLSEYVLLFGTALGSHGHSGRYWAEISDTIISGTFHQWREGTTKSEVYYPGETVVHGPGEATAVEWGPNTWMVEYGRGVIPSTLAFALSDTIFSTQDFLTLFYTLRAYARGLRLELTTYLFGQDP
Experimental details: In vitro for binding affinity against sigma receptor using [3H](+)-3-PPP as radioligand
Entries and their measured IC50 follow.
Response body: numeric value in nM, unit text excluded.

Examples with answers:
> print(dat)
                                   compound  units  measurement
1  Oc1ccc2c(c1)C1CCCN(Cc3ccccc3)C1CC2 (racemic)     nM           11
2        CCCN1CCC[C@H]2c3cccc(O)c3CC[C@H]21     nM          197

Request: Need IC50 of CCCN1CCCC(c2ccc(O)cc2)C1 (stereo unspecified) , thanks.
Result: 276

Request: Need IC50 of CCCCN1CCCC2c3cc(O)ccc3CCC21 (racemic; 33) , thanks.
Result: 35

Request: Need IC50 of CCCCN1CCCC2c3cc(O)ccc3CCC21 (racemic; 23) , thanks.
Result: 10

Request: Need IC50 of "CC(C)N1CCC[C@@H](c2cccc(O)c2)C1" , thanks.
Result: 208

###

Study target: D(2) dopamine receptor (Rattus norvegicus)
Experimental details: Tested in vivo for binding affinity against Dopamine receptor D2 using nonradiolabeled 5,6-di-n-Pr-ADTN
Assay type: organism-based
Design: concentration or dose not given beside the values
Group membership follows Control per the scheme lo: < 50%; mid: ≥ 50% and < 70%; hi: ≥ 70%

> print(dat)
                        compound  answer.label
1  CCCN1CCC[C@@H](c2cccc(O)c2)C1            lo
2  CCCCN1CCC[C@H](c2cccc(O)c2)C1            hi

Request: Into which category would you place Oc1cccc2c1CCC1C2CCCN1CCc1ccccc1 (racemic) ?
Result: mid

Request: Into which category would you place "CCCN1CCC[C@H](c2cccc(O)c2)C1" ?
Result: hi

Request: Into which category would you place CCN1CCCC2c3cccc(O)c3CCC21 (racemic) ?
Result: mid

Request: Into which category would you place CCCCN1CCCC2c3cccc(O)c3CCC21 (racemic) ?
Result: mid

Request: Into which category would you place Oc1ccc2c(c1)C1CCCNC1CC2 (racemic; 18) ?
Result: hi

Request: Into which category would you place CCN1CCCC2c3cc(O)ccc3CCC21 (racemic) ?
Result: mid

Request: Into which category would you place CN1CCCC2c3cc(O)ccc3CCC21 (racemic) ?
Result: mid

Request: Into which category would you place CN1CCCC2c3cccc(O)c3CCC21 (racemic) ?
Result: lo

Request: Into which category would you place "CCCCN1CCC[C@@H](c2cccc(O)c2)C1" ?
Result: lo

Taken from ChEMBL document CHEMBL1123557.
